Assay: BHET released, HPLC; higher = more BHET released; extreme values may be limits of the assay
Conditions: PET substrate: aFilm; 70 °C; pH 4.5; 24 h
Some sequences, each annotated with its measured BHET released.
API: value field is a number in mM; no unit string.

Query: Could you tell me which BHET released is on file for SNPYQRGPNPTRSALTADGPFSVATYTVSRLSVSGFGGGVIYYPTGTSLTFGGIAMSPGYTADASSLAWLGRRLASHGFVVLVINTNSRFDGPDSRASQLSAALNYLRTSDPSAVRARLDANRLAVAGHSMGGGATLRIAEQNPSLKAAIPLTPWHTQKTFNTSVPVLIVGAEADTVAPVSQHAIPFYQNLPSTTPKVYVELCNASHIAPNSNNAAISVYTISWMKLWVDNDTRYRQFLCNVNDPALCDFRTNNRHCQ [LCC-ICCG DAQI] ?
Response: 0

Now let's try a different one.
Query: Could you tell me which BHET released is on file for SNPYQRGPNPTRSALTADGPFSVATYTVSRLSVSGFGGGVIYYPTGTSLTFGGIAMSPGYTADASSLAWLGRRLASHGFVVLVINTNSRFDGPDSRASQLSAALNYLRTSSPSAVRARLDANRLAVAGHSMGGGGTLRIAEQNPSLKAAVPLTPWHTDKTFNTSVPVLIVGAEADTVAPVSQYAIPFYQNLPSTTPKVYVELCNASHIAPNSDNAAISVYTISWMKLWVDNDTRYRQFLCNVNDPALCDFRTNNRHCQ [LCC-A2] ?
Response: 0
